- System: HCV genotype 1b (Con1) replicon in HUH-7 cells
- procedureDetails: HCV replicon luciferase reporter assay, genotype 1b
- Assay type: cell-based
- conditionSet: Hepatitis C virus, Huh-7, 72 h, HCV genotype 1b replicon luciferase, 3 days incubation, read-out: LE_1b (EC50, range)
pEC50: −log10 of the molar value.
Listed below: pEC50 values for each entry.
readoutName: pEC50

>>> resultvalue("CC[C@@H]1C[C@H](C)CC/C=C\\[C@@H]2C[C@@]2(C(=O)NS(=O)(=O)C2(C)CC2)NC(=O)[C@@H]2C[C@@H](Oc3cc(-n4cccn4)nc4cc(OC)ccc34)CN2C(=O)[C@H]1NC(=O)OC(C)(C)C [Compound 4245]")
"9.30 to 10.00"
>>> resultvalue("COc1ccc2c(O[C@@H]3C[C@H]4C(=O)N[C@]5(C(=O)NS(=O)(=O)C6(C)CC6)C[C@H]5/C=C\\CC[C@H](C)C[C@@H](C)[C@H](NC(=O)OC(C)(C)C(F)(F)F)C(=O)N4C3)nc(-c3ccc(OC(C)C)nc3)cc2c1 [Compound 5224]")
"6.99 to 8.32"
>>> resultvalue("COc1ccc2c(O[C@@H]3C[C@H]4C(=O)N[C@]5(C(=O)NS(=O)(=O)C6(C)CC6)C[C@H]5/C=C\\CC[C@@H](C)C[C@@H](C)[C@H](NC(=O)c5ccncc5F)C(=O)N4C3)ncc(OC)c2c1 [Compound 4142]")
"> 8.26"
>>> resultvalue("[2H]C([2H])([2H])C(C)(OC(=O)N[C@@H]1C(=O)N2C[C@H](Oc3nccc4cc(OC(C)C)ccc34)C[C@H]2C(=O)N[C@]2(C(=O)NS(=O)(=O)C3(C)CC3)C[C@H]2/C=C\\CC[C@@H](C)C[C@H]1C)C([2H])([2H])[2H] [Compound 5165]")
"> 8.26"
>>> resultvalue("COc1cnc(O[C@@H]2C[C@H]3C(=O)N[C@]4(C(=O)NS(=O)(=O)C5(F)CC5)C[C@H]4/C=C\\CC[C@@H](C)C[C@@H](C)[C@H](NC(=O)OCC(C)(C)C)C(=O)N3C2)c2cc(F)ccc12 [Compound 4047]")
"> 8.26"
>>> resultvalue("CC[C@@H]1C[C@H](C)CC/C=C\\[C@@H]2C[C@@]2(C(=O)NS(=O)(=O)C2(C)CC2)NC(=O)[C@@H]2C[C@@H](Oc3ncc(C(N)=O)c4cc(OC)ccc34)CN2C(=O)[C@H]1NC(=O)OC(C)(C)C [Compound 4343]")
"7.46 to 8.30"
>>> resultvalue("CCOc1nnc(O[C@@H]2C[C@H]3C(=O)N[C@]4(C(=O)NS(=O)(=O)C5(C)CC5)C[C@H]4/C=C\\CC[C@H](C)C[C@@H](CC)[C@H](NC(=O)OC(C)(C)C)C(=O)N3C2)c2ccccc12 [Compound 5046]")
"> 8.26"
>>> resultvalue("COc1ccc2c(O[C@@H]3C[C@H]4C(=O)N[C@]5(C(=O)NS(=O)(=O)C6(C)CC6)C[C@H]5/C=C\\CC[C@H](C)C[C@@H](C)[C@H](NC(=O)OC5C[C@@H]6C[C@@H]6C5)C(=O)N4C3)nc(-c3ccc(OC(C)C)nc3)cc2c1 (some centres unmarked) [Compound 5228]")
"> 8.26"

###

Listed below: EC50 values for each entry.
- System: HCV genotype 1b (Con1) replicon in HUH-7 cells
- procedureDetails: HCV replicon luciferase reporter assay, genotype 1b
- Type: cell-based
- conditionSet: Hepatitis C virus, Huh-7, 72 h, HCV genotype 1b replicon luciferase, 3 days incubation, read-out: LE_1b (EC50, range)
readoutName: EC50

>>> resultvalue("CC[C@@H]1C[C@H](C)CC/C=C\\[C@@H]2C[C@@]2(C(=O)NS(=O)(=O)C2(C)CC2)NC(=O)[C@@H]2C[C@@H](Oc3nnc(OC)c4ccccc34)CN2C(=O)[C@H]1NC(=O)OC(C)(C)C [Compound 5026]")
"< 5.46 nM"
>>> resultvalue("C[C@H]1CC/C=C\\[C@@H]2C[C@@]2(C(=O)NS(=O)(=O)C2(C)CC2)NC(=O)[C@@H]2C[C@@H](Oc3nccc4c5c(ccc34)N(C)CCO5)CN2C(=O)[C@@H](NC(=O)OC(C)(C)C)[C@H](C)C1 [Compound 5293]")
"< 5.46 nM"
>>> resultvalue("CC[C@@H]1C[C@@H](C)CC/C=C\\[C@@H]2C[C@@]2(C(=O)NS(=O)(=O)C2CC2)NC(=O)[C@@H]2C[C@@H](Oc3nccc4c5c(ccc34)N(C)CCO5)CN2C(=O)[C@H]1NC(=O)O[C@@H]1C[C@@H]2C[C@@H]2C1 [Compound 5313]")
"< 5.46 nM"
>>> resultvalue("CCn1nc(O[C@@H]2C[C@H]3C(=O)N[C@]4(C(=O)NS(=O)(=O)C5CC5)C[C@H]4/C=C\\CC[C@H](C)C[C@@H](C)[C@H](NC(=O)NC(C)(C)C)C(=O)N3C2)c2ccccc2c1=O [Compound 5071]")
"> 87.4 nM"
>>> resultvalue("CC[C@@H]1C[C@H](C)CC/C=C\\[C@@H]2C[C@@]2(C(=O)NS(=O)(=O)C2CC2)NC(=O)[C@@H]2C[C@@H](Oc3nccc4c5c(ccc34)OCCO5)CN2C(=O)[C@H]1NC(=O)OC(C)(C)C(C)(F)F [Compound 5336]")
"< 5.46 nM"
>>> resultvalue("COc1cc2c(OC)cnc(O[C@@H]3C[C@H]4C(=O)N[C@]5(C(=O)NS(=O)(=O)C6(CF)CC6)C[C@H]5/C=C\\CC[C@@H](C)C[C@@H](C)[C@H](NC(=O)c5c(F)cc(F)cc5F)C(=O)N4C3)c2cc1F [Compound 4117]")
"< 5.46 nM"
>>> resultvalue("C[C@H]1CC/C=C\\[C@@H]2C[C@@]2(C(=O)NS(=O)(=O)C2(C)CC2)NC(=O)[C@@H]2C[C@@H](Oc3nccc4c5c(ccc34)OCCO5)CN2C(=O)[C@@H](NC(=O)OC(C)(C)C(F)(F)F)[C@H](C)C1 [Compound 5246]")
"4.82 to 103 nM"
>>> resultvalue("C[C@@H]1CC/C=C\\[C@@H]2C[C@@]2(C(=O)NS(=O)(=O)C2CC2)NC(=O)[C@@H]2C[C@@H](Oc3nccc4c5c(ccc34)OC(F)(F)O5)CN2C(=O)[C@@H](NC(=O)O[C@H](C)C(F)(F)F)[C@H](C)C1 [Compound 5270]")
"< 5.46 nM"
>>> resultvalue("CCOc1cnc(O[C@@H]2C[C@H]3C(=O)N[C@]4(C(=O)NS(=O)(=O)C5(CF)CC5)C[C@H]4/C=C\\CC[C@@H](C)C[C@@H](C)[C@H](NC(=O)OC(C)(C)C)C(=O)N3C2)c2ccc(OC)cc12 [Compound 4105]")
"< 5.46 nM"
>>> resultvalue("CCOc1cc2ccnc(O[C@@H]3C[C@H]4C(=O)N[C@]5(C(=O)NS(=O)(=O)C6CC6)C[C@H]5/C=C\\CC[C@@H](C)C[C@@H](CC)[C@H](NC(=O)OC(C)(C)C(F)(F)F)C(=O)N4C3)c2cc1F [Compound 5407]")
"0.51 to 1 nM"
>>> resultvalue("COc1ccc2c(O[C@@H]3C[C@H]4C(=O)N[C@]5(C(=O)NS(=O)(=O)C6(C)CC6)C[C@H]5/C=C\\CC[C@@H](C)C[C@@H](C)[C@H](NC(=O)OC(C)(C)C(C)(F)F)C(=O)N4C3)nc3c(c2c1)CCCO3 [Compound 6082]")
"1.01 to 5 nM"
>>> resultvalue("CCn1nc(O[C@@H]2C[C@H]3C(=O)N[C@]4(C(=O)NS(=O)(=O)C5(C)CC5)C[C@H]4/C=C\\CC[C@H](C)C[C@@H](C)[C@H](NC(=O)c4ccc(N(C)C)cc4)C(=O)N3C2)c2ccccc2c1=O [Compound 5060]")
"> 87.4 nM"
>>> resultvalue("CCCOc1cnc(O[C@@H]2C[C@H]3C(=O)N[C@]4(C(=O)NS(=O)(=O)C5CC5)C[C@H]4/C=C\\CC[C@H](C)C[C@@H](C)[C@H](NC(=O)OC(C)(C)C)C(=O)N3C2)c2ccccc12 [Compound 5088]")
"4.82 to 103 nM"
>>> resultvalue("COc1ccc2nc(O[C@@H]3C[C@H]4C(=O)N[C@]5(C(=O)NS(=O)(=O)C6(C)CC6)C[C@H]5/C=C\\CC[C@@H](C)C[C@@H](C)[C@H](NC(=O)OC(C)(C)C)C(=O)N4C3)cnc2c1 [Compound 4085]")
"< 5.46 nM"
>>> resultvalue("CCn1nc(O[C@@H]2C[C@H]3C(=O)N[C@]4(C(=O)NS(=O)(=O)C5(C)CC5)C[C@H]4/C=C\\CC[C@@H](C)C[C@@H](C)[C@H](NC(=O)O[C@@H]4C[C@@H]5C[C@@H]5C4)C(=O)N3C2)c2ccccc2c1=O [Compound 5057]")
"< 5.46 nM"
>>> resultvalue("CC[C@@H]1C[C@H](C)CC/C=C\\[C@@H]2C[C@@]2(C(=O)NS(=O)(=O)C2(C)CC2)NC(=O)[C@@H]2C[C@@H](Oc3nccc4c5c(ccc34)OCCO5)CN2C(=O)[C@H]1NC(=O)OC(C)(C)C(C)(F)F [Compound 5332]")
"< 5.46 nM"
>>> resultvalue("C[C@@H]1CC/C=C\\[C@@H]2C[C@@]2(C(=O)NS(=O)(=O)C2CC2)NC(=O)[C@@H]2C[C@@H](Oc3nccc4c5c(ccc34)N(C)CCO5)CN2C(=O)[C@@H](NC(=O)OC(C)(C)C(C)(F)F)[C@H](C)C1 [Compound 5282]")
"< 5.46 nM"

Data provenance is patent US9499550B2.
